molecular target: 5-HT2B (h) (Homo sapiens)
measuredAttribute: pIC50
Keep in mind that pIC50 stands for -log10 of concentration in molar terms.

Query COc1cc(CC(C)N)c(OC)cc1I (racemic) [(±)DOI, reference compound] on 5-HT2B (h) (Homo sapiens); pIC50 returned: 8.26

----------
biological target: hERG (Homo sapiens); experiment: Ion channel selectivity patch clamp
Sequence (Q12809 whole entry): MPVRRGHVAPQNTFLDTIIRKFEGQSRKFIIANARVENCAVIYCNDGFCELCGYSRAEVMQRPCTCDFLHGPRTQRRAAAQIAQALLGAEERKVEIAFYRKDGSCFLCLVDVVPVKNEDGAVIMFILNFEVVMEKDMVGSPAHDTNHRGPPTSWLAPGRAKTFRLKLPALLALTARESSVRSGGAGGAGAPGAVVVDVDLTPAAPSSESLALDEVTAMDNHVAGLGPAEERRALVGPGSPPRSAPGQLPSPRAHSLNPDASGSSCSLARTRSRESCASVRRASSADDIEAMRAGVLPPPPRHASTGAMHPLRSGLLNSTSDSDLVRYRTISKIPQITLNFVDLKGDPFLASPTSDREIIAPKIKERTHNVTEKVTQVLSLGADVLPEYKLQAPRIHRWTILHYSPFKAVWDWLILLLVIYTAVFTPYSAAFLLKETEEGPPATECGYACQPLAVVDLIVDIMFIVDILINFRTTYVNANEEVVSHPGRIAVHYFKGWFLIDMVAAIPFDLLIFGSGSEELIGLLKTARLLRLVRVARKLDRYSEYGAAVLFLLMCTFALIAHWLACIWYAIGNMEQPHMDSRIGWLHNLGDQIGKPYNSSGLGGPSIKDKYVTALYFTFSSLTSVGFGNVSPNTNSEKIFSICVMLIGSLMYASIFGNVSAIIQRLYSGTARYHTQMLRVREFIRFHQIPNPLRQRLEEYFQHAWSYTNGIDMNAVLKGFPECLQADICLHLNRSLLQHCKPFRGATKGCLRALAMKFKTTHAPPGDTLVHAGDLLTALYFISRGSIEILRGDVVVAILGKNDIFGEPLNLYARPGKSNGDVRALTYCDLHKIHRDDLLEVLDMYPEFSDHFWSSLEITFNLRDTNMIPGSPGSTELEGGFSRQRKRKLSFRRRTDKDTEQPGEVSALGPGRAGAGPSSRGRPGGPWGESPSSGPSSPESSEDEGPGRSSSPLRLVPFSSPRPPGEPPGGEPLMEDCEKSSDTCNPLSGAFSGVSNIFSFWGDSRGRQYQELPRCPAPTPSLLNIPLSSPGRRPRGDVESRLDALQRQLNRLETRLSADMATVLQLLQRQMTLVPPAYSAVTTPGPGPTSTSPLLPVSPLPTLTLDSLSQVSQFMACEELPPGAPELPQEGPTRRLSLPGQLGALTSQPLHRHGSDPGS
measuredAttribute: IC50 (nM)
Write down the numeric answer in nM and omit the unit.

Looking up Cn1c(=O)n(CCCO)c(=O)c2c1nc(Oc1cccc(OC(F)(F)F)c1)n2Cc1ccc(Cl)cc1 , I found its IC50 recorded as 1150

----------
experiment: in vivo; conditions: male, C57BL/6, mouse, po, 10 mg/kg, CPL (concentration in plasma)
measuredAttribute: concentration at 2 h
Please report the result as a number followed by the unit.

Documented concentration at 2 h of Cn1c(=O)n(CCCO)c(=O)c2c1nc(Oc1cccc(Cl)c1)n2Cc1ccc(Cl)cc1 : 583 nM

----------
target: β3 (h) (Homo sapiens, UniProt P13945)
Sequence (P13945 whole entry): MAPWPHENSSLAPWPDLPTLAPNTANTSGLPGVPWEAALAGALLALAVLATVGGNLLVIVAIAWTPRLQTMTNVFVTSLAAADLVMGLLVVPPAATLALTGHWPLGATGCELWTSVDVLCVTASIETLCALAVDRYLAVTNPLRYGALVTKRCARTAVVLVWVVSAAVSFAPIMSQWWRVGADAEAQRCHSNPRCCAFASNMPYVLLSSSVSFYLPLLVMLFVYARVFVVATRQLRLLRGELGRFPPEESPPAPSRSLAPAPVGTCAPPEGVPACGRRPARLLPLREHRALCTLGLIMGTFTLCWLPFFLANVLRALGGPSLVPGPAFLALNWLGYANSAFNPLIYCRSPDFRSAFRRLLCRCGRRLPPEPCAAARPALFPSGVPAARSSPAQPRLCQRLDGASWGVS
measuredAttribute: pIC50
# pIC50 is unitless: minus log10 of the molar concentration; print number only

For the compound CC(C)(C)NCC(O)COc1cccc2[nH]c(C#N)cc12 (stereo not shown) [cyanopindolol, reference compound] , the measured pIC50 on β3 (h) (Homo sapiens, UniProt P13945) was 7.23

----------
target: 5-HT2B (h) (Homo sapiens, UniProt P41595)
Sequence (P41595 whole entry): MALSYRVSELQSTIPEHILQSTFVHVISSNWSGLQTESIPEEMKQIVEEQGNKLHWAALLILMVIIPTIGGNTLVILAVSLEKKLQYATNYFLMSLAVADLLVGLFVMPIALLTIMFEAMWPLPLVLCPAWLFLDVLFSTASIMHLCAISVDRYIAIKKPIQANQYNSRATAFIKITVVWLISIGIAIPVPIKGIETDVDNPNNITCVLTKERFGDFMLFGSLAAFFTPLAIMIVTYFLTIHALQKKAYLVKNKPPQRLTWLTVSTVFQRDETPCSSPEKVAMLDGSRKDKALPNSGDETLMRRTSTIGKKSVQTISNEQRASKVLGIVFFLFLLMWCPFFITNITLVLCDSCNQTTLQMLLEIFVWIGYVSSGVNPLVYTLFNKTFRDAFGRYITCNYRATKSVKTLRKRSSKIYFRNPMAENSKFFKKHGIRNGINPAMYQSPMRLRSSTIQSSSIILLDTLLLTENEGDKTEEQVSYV
measuredAttribute: Ki (nM)
The reply should contain only the number, in nM.

Tested on 5-HT2B (h) (Homo sapiens, UniProt P41595), the item COc1cc(CC(C)N)c(OC)cc1I (racemic) [(±)DOI, reference compound] showed Ki equal to 2.7

----------
molecular target: Kv1.5 (Homo sapiens, UniProt P22460); experiment: Ion channel selectivity patch clamp; format: cell-based; conditions: Voltage (+40 mV)
Sequence (P22460 whole entry): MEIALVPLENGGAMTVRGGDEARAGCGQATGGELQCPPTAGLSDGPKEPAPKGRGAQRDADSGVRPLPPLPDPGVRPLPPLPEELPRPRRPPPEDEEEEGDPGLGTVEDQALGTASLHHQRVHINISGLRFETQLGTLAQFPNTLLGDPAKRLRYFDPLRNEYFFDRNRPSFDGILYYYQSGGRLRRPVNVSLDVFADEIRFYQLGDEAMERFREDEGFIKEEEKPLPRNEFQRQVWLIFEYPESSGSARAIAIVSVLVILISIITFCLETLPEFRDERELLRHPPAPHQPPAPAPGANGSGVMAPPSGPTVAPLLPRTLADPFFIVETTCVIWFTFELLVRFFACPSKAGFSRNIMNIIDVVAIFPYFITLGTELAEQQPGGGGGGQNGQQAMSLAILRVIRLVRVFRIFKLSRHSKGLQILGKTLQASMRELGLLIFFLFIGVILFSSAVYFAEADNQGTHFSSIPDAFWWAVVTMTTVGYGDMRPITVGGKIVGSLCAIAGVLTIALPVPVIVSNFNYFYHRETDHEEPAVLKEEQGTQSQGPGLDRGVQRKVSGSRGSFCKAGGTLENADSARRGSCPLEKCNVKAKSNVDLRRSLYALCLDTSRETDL
pIC50: −log10 of the molar value.
measuredAttribute: pIC50

Note to self: pIC50 of Cn1c(=O)n(CCCO)c(=O)c2c1nc(Oc1cccc(Cl)c1)n2Cc1ccc(Cl)cc1 with Kv1.5 (Homo sapiens, UniProt P22460) was < 5.72

----------
target: mTRPC5 (Mus musculus, UniProt Q9QX29); construct: The cDNAs for various full-length ion channels were subcloned into pcDNA5/TO; assay: Whole-cell manual patch clamp; conditions: La3+ (80 μM)
Sequence (Q9QX29 whole entry): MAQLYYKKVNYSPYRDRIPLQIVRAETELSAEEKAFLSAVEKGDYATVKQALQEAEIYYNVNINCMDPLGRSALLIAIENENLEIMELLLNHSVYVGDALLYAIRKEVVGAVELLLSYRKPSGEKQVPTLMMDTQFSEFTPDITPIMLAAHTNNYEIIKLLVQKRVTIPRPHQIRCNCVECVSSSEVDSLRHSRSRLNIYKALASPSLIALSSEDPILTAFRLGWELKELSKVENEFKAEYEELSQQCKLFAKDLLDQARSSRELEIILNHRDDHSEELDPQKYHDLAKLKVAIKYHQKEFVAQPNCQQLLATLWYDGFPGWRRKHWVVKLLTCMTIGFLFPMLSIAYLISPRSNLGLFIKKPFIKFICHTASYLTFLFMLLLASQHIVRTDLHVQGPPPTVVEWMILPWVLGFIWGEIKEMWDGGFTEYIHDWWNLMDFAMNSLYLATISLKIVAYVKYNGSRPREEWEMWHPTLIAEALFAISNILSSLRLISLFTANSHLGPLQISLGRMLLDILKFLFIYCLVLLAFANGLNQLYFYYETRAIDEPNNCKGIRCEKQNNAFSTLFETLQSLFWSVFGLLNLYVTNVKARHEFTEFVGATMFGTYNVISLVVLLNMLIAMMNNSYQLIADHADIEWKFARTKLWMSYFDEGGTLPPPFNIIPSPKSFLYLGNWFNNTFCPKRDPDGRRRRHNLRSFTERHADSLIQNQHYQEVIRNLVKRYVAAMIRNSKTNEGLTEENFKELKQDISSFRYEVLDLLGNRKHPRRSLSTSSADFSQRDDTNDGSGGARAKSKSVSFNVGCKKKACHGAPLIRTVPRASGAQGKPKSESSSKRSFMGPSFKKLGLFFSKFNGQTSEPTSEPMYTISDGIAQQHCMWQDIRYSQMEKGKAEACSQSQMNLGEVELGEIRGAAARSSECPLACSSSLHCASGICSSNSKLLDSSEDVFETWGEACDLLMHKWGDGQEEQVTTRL
measuredAttribute: IC50

For the molecule Cn1c(=O)n(CCCO)c(=O)c2c1nc(Oc1cccc(OC(F)(F)F)c1)n2Cc1ccc(Cl)cc1 , the measured IC50 on mTRPC5 (Mus musculus, UniProt Q9QX29) was ~0.62 nM

----------
biological target: Kv7.1 (Homo sapiens); assay: Ion channel selectivity patch clamp; settings: Voltage (+20 mV)
pIC50: −log10 of the molar value.
measuredAttribute: pIC50

Quick note, pIC50 for Cn1c(=O)n(CCCO)c(=O)c2c1nc(Oc1cccc(Cl)c1)n2Cc1ccc(Cl)cc1 landed at < 5.72

----------
molecular target: human TRPC5 (hTRPC5) (Homo sapiens, UniProt Q9UL62); construct: The cDNAs for various full-length ion channels were subcloned into pcDNA5/TO; expressed in transfected cells; assay: Fluorometric calcium influx assay; format: cell-based; conditions: indicator-assisted calcium influx, 1 pM to 1 μM, n = 8
Sequence (Q9UL62 whole entry): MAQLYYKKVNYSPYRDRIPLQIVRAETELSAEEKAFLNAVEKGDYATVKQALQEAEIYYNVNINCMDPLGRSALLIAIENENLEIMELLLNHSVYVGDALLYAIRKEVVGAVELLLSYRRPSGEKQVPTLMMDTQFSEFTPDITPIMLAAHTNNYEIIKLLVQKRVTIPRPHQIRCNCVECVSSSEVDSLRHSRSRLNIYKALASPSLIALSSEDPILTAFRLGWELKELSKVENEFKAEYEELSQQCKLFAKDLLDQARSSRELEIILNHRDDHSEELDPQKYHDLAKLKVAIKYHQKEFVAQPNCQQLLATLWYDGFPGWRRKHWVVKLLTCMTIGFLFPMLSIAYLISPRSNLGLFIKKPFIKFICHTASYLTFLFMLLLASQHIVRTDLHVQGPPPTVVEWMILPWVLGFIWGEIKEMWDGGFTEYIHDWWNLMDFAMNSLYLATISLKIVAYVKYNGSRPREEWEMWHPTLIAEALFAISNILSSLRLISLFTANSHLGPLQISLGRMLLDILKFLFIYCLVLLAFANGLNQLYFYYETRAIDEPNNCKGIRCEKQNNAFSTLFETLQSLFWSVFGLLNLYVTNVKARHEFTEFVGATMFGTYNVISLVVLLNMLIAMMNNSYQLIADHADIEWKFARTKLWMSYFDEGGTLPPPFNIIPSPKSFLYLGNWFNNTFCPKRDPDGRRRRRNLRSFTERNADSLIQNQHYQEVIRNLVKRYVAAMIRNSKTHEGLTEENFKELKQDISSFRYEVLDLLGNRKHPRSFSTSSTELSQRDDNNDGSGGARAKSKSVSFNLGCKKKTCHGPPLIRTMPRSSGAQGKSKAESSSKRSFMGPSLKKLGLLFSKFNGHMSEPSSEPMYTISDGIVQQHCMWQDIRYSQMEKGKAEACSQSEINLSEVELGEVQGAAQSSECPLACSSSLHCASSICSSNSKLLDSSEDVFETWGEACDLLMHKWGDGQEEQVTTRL
measuredAttribute: IC50
Include the unit right after the number.

Briefly, IC50 measured for Cn1c(=O)n(CCCO)c(=O)c2c1nc(Oc1cccc(OC(F)(F)F)c1)n2Cc1ccc(Cl)cc1 : 6.2 nM

----------
molecular target: 5-HT2C (h) (Homo sapiens); construct: host or cells: HEK-293 cells; assay type: binding
Sequence (P28335 33-458): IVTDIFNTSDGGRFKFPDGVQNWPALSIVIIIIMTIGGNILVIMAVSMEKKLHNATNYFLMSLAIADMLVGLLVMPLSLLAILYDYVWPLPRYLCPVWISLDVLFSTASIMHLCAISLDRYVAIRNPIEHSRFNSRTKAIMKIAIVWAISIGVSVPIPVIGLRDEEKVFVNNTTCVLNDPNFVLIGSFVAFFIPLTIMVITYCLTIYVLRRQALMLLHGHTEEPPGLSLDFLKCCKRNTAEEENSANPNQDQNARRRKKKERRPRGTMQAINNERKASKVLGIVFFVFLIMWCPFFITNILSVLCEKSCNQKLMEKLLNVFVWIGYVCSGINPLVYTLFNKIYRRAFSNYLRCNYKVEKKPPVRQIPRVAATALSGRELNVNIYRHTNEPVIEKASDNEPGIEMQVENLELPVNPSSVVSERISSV
measuredAttribute: IC50 (nM)
Respond numerically; units are nM and should not be typed.

Entry COc1cc(OC)c(C(=O)CCCCN2CCC3(CC2)NC(=O)NC3=O)cc1NS(=O)(=O)c1ccc(C(F)(F)F)cc1 [RS 102221, reference compound] — recorded IC50 = 2.3
